Recorded values, source patent US20230035798A1.

Quick reference for binding, % of WT among some binders
- assaySystem: T1, membrane LIGHT W198A (human, UniProt O43557 1-240)
- T1 chain: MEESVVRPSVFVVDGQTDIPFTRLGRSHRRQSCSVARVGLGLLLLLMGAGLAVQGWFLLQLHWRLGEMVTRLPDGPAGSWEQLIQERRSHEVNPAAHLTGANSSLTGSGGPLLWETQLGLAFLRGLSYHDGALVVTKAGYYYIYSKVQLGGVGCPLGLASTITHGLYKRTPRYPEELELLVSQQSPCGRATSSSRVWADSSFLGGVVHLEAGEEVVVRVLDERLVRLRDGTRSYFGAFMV
- assayProcedure: flow cytometry, transfected HEK293FF, mAb at EC50

Field: example entries. Status: answers known.
3E09 (antibody, V domains shown, chimeric human IgG4 (S-to-P, L-to-E at 248), human CL; also called Parental 3E09) VH: EVQLVESGGGLVKPGGSLKLSCEASGFTFSDYYMYWVRQTPEKRLEWVAAIGDGGIYTYYADTVKGRFTISRDNAKNILYLQMSSLKSNDTAMYYCARGTGDGFAYWGQGTLVTVS VL: DIVLTQSPASLAVSLGQRATISCRASESVDSYGNSFMHWYQQKPGQPPKLLIYLASNLESGVPARFSGSGSRTDFTLTIDPVEADDAATYYCQQNNEDPYTFGGGTKLEIK = 48%
3D12 (antibody, human IgG4, V domains shown, chimeric: mouse variable domains on human IgG4 HC (S-to-P and L-to-E at 248) and human CL; also called Parental 3D12; 3D12 chimeric) VH: QVQLQQPGAELVRPGASVTLSCKASDYTFTDSEIHWVKQTPVHGLEWIGEIDPETGGTAYNQKFKGKATLTADKSSSTAYMELRSLTSEDSAVYYCSRETDYFFDYWGQGTTLTVSS VL: DIQMTQSPASLSASVGETVTITCGASENIYGALNWYQRKQGKSPQLLIYGATNLADGMSSRFSGSGSGRQYSLKISSLHPDDVATYYCQNVLSTPWTFGGGTKLEIKR = 83%
3B04 (antibody, human IgG4, V domains shown, chimeric: mouse variable domains on human IgG4 HC (S-to-P and L-to-E at 248) and human CL; also called Parental 3B04; 3B04 chimeric) VH: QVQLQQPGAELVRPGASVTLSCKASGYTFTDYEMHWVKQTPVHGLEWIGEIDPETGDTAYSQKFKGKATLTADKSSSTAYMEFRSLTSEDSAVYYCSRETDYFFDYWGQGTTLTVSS VL: DIQMTQTPASLSASVGETVTITCGASENIYGALNWYQRKQGKSPQLLIYGATNLADGMSSRFSGSGSGRQYSLKISSLHPDDFATYYCQNVLTTPWTFGGGTKLEIKR = 81%

Now look at this entry.
The binder identified as 3C10 (antibody, human IgG4, V domains shown, chimeric human IgG4 (S-to-P, L-to-E at 248), human CL; also called Parental 3C10) VH: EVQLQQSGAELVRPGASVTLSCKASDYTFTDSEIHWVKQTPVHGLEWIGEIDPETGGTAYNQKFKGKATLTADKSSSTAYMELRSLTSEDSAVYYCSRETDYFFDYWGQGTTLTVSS VL: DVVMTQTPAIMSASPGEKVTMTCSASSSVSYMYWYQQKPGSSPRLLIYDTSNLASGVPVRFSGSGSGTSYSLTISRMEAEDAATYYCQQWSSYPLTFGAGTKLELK registered its binding, % of WT at 86%
